Test system: Rhizoctonia solani (Rs)
Test: Growth inhibition assay of fungal pathogens, Rs
Type: cell-based
Details: 48 h, mycelial plugs, growth inhibition at 48 hours vs 2% DMSO control, read-out: Concentration at 90% Inhibition Rs
measured_parameter: IC90 (µg/mL)

[[record]]
smiles_data = "CCc1ccc(F)cc1[C@H](Cn1c(=O)n(C(C)(C)C(=O)NC(C)C)c(=O)c2c(C)c(-n3nccn3)sc21)OCCO"
value_prefix = "="
recorded_measurement = 0.08

[[record]]
smiles_data = "COc1ccccc1[C@H](Cn1c(=O)n(C(C)(C)C(=O)N2CCCC2)c(=O)c2c(C)c(-n3nccn3)sc21)OC1CCOCC1"
value_prefix = "="
recorded_measurement = 0.08

[[record]]
smiles_data = "Cc1c(-n2nccn2)sc2c1c(=O)n(C(C)(C)C(=O)NC(C)C)c(=O)n2C[C@H](OC(C)C)c1cc(F)ccc1OCC1COC1"
value_prefix = "="
recorded_measurement = 0.4

[[record]]
smiles_data = "COc1ccccc1[C@H](Cn1c(=O)n(C(C)(C)C(=O)NC2CCC2)c(=O)c2c(C)c(-n3nccn3)sc21)OC1CCOCC1"
value_prefix = "="
recorded_measurement = 0.08

[[record]]
smiles_data = "COc1ccc(F)cc1[C@H](Cn1c(=O)n([C@@H](C)C(=O)NC(C)C)c(=O)c2c(C)c(-n3nccn3)sc21)OCC(C)(C)C#N"
value_prefix = ">"
recorded_measurement = 50

[[record]]
smiles_data = "COc1ccc(F)cc1[C@H](Cn1c(=O)n(C(C)(C)C(=O)N2CC=CC2)c(=O)c2c(C)c(-n3nccn3)sc21)OC(C)C"
value_prefix = "="
recorded_measurement = 0.4


----------
Test system: Botrtyis cinerea (Bc)
Assay: Growth inhibition assay of fungal pathogens, Bc
Type: cell-based
Details: 48 h, Botrtyis cinerea; growth inhibition vs 2% DMSO control at 48 hours; read-out: Concentration at 90% Inhibition Bc
measured_parameter: IC90 (mg/L)

[[record]]
compound = "Cc1c(-n2nccn2)sc2c1c(=O)n(C(C)(C)C(=O)NC(C)C)c(=O)n2C[C@H](OC(C)C)c1cc(F)ccc1OCCO [Compound I-53]"
measured_parameter = "IC90"
recorded_measurement = 0.4

[[record]]
compound = "COc1ccccc1[C@H](Cn1c(=O)n(C(C)(C)C(N)=O)c(=O)c2c(C)c(-n3nccn3)sc21)OC1CCOCC1 [Compound I-14]"
measured_parameter = "IC90"
recorded_measurement = 2

[[record]]
compound = "COc1ccc(F)cc1[C@H](Cn1c(=O)n(C(C)(C)C(N)=O)c(=O)c2c(C)c(-n3nccn3)sc21)OCC(C)C [Compound I-8]"
measured_parameter = "IC90"
recorded_measurement = 2

[[record]]
compound = "COc1ccc(F)cc1[C@H](Cn1c(=O)n(C(C)(C)C(N)=O)c(=O)c2c(C)c(-n3nccn3)sc21)OC1CCOCC1 [Compound I-1]"
measured_parameter = "IC90"
recorded_measurement = 2

[[record]]
compound = "COCCCO[C@@H](Cn1c(=O)n(C(C)(C)C(=O)N2CCCC2)c(=O)c2c(C)c(-n3nccn3)sc21)c1cc(F)ccc1OC [Compound I-68]"
measured_parameter = "IC90"
recorded_measurement = 2

[[record]]
compound = "COc1ccc(F)cc1[C@H](Cn1c(=O)n(C(C)(C)C(=O)NC(C)C)c(=O)c2c(C)c(-n3nccn3)sc21)OCCC#N [Compound I-91]"
measured_parameter = "IC90"
recorded_measurement = 0.4


Numbers sourced from patent US10800791B2.
